src = patent US10273228B2

Tested on: AD38 cells
method: AD38 viability normalized to DMSO control
Format: cell-based
conditions used: 10 μM compound, vs DMSO control; Table 9
assay readout: AD38 Viability Normalized Result (CPAM/DMSO %) at 10 μM
Respond numerically; units are % and should not be typed.

Known results for molecules:
| molecule | test system | numeric readout |
| --- | --- | --- |
| COc1ccc(S(=O)(=O)N2CCN(c3nc(C)cc(Nc4ccc(C#N)cc4)n3)CC2(C)C)cc1 [Compound 1376] | AD38 cells | 121 |
| O=C(O)CCCOc1ccc(S(=O)(=O)N2CCN(c3nc(Nc4ccc(F)cc4)cc(C(F)(F)F)n3)CC2)cc1 [Compound 1398] | AD38 cells | 0 |
| O=S(=O)(c1ccc(OC(F)(F)F)cc1)N1CCN(c2nc(Nc3ccc(F)cc3)cc(-c3nccs3)n2)CC1 [Compound 1367] | AD38 cells | 105 |
| Cc1ccc(S(=O)(=O)N2CCN(c3nc(Nc4ccc(C#N)cc4)cc(-c4nccs4)n3)CC2)cc1 [Compound 1356] | AD38 cells | 97 |

Report AD38 Viability Normalized Result (CPAM/DMSO %) at 10 μM for O=C(O)COc1ccc(S(=O)(=O)N2CCN(c3nc(Nc4ccc(F)cc4)cc(C(F)(F)F)n3)CC2)cc1 [Compound 1399] please. 93

I have this molecule here, O=S(=O)(c1ccc(OC(F)(F)F)cc1)N1CCN(c2nc(Nc3ccccn3)cc(C(F)(F)F)n2)CC1 [Compound 1415] , and I need its recorded AD38 Viability Normalized Result (CPAM/DMSO %) at 10 μM. 101

// returns reported AD38 Viability Normalized Result (CPAM/DMSO %) at 10 μM for input COc1ccc(S(=O)(=O)N2CCN(c3nc(C)cc(Nc4ccc(C#N)cc4)n3)C(=O)C2)cc1 [Compound 1352] 96

###

Test system: AD38 cells
method: AD38 viability normalized to DMSO control
Assay type: cell-based
conditions used: 10 μM compound, vs DMSO control; Table 6
Reported AD38 Viability Normalized Result (CPAM/DMSO %) at 10 μM values follow for various compounds
# number then unit; no other words

Example compounds with recorded AD38 Viability Normalized Result (CPAM/DMSO %) at 10 μM:
| smiles representation | result |
| --- | --- |
| COc1ccc(S(=O)(=O)N2CCN(c3nc(Nc4ccc(C)cc4)cc(N(C)C(C)C)n3)CC2)cc1 | 33% |
| COc1ccc(S(=O)(=O)N2CCN(c3nc(Nc4ccc(C)cc4)cc(OCCO)n3)CC2)cc1 | 102% |
| Cc1ccc(S(=O)(=O)N2CCN(c3nc(Nc4ccc(F)cc4)cc(N(C)C)n3)CC2)cc1 | 103% |

I would be grateful if you could share the reported AD38 Viability Normalized Result (CPAM/DMSO %) at 10 μM for Cc1ccc(Nc2cc(C)nc(N3CCN(S(=O)(=O)c4ccc(Oc5ccccc5)cc4)CC3)n2)cc1 . 113%

###

Overview of recorded AD38 Viability Normalized Result (CPAM/DMSO %) at 10 μM for various compounds
Test system: AD38 cells
method: AD38 viability normalized to DMSO control
Assay type: cell-based
conditions used: 10 μM compound, vs DMSO control; Table 9
Write down the numeric answer in % and omit the unit.

Use the examples below as a reference point.
| smiles representation | numeric readout |
| --- | --- |
| Cc1ccc(S(=O)(=O)N2CCN(c3nc(C)cc(Nc4ccc(F)cc4)n3)CC2)cc1 | 93 |
| COC(=O)CCCOc1ccc(S(=O)(=O)N2CCN(c3nc(C)cc(Nc4ccc(F)cc4)n3)CC2)cc1 | 107 |
| N#Cc1ccc(Nc2cc(-c3nccs3)nc(N3CCN(S(=O)(=O)c4ccc(F)cc4)CC3)n2)cc1 | 98 |
| Cc1cc(Nc2ccc(F)cc2)nc(N2CCN(S(=O)(=O)c3ccc(F)cc3)CC2)n1 | 7 |
| O=S(=O)(c1ccc(OC(F)(F)F)cc1)N1CCN(c2nc(Nc3ccc(F)cc3)cc(C(F)(F)F)n2)CC1 | 88 |
| O=S(=O)(c1ccccc1)N1CCN(c2nc(Nc3ccc(F)cc3)cc(C(F)(F)F)n2)CC1 | 31 |

Now look at this entry.
Need AD38 Viability Normalized Result (CPAM/DMSO %) at 10 μM, item CCOc1ccc(S(=O)(=O)N2CCN(c3nc(Nc4ccc(C#N)cc4)cc(-c4nccs4)n3)CC2)cc1 107

###

Test system: AD38 cells
method: AD38 viability normalized to DMSO control
Format: cell-based
conditions used: 10 μM compound, vs DMSO control; Table 6
assay readout: AD38 Viability Normalized Result (CPAM/DMSO %) at 10 μM
Your answer should be a plain number; it is taken to be in %.

Example molecules with recorded AD38 Viability Normalized Result (CPAM/DMSO %) at 10 μM:
| molecule | numeric readout |
| --- | --- |
| COc1ccc(S(=O)(=O)N2CCN(c3nc(C)cc(Nc4ccc(C)nc4)n3)CC2)cc1 [Compound 1194] | 109 |
| COc1ccc(S(=O)(=O)N2CCN(c3cc(C)cc(Nc4ccc(C)cc4)n3)CC2)cc1 [Compound 1172] | 107 |
| Cc1ccc(Nc2cc(C)nc(N3CCN(S(=O)(=O)c4cnc(N)nc4)CC3)n2)cc1 [Compound 1260] | 98 |
| Cc1ccc(S(=O)(=O)N2CCN(c3nc(Oc4ccc(F)cc4)cc(N(C)C)n3)CC2)cc1 [Compound 1290] | 105 |
| O=S(=O)(c1ccc(C(F)(F)F)cc1)N1CCN(c2nc(Nc3ccc(F)cc3)cc(-n3cnnc3)n2)CC1 [Compound 1315] | 98 |
| COc1ccc(S(=O)(=O)N2CCN(c3nc(Nc4ccc(C)cc4)cc(N4CCNCC4)n3)CC2)cc1 [Compound 1202] | 106 |

Given the entry CN(C)c1cc(Nc2ccc(F)cc2)nc(N2CCN(S(=O)(=O)c3ccc(F)cc3)CC2)n1 [Compound 1302] , report its measured AD38 Viability Normalized Result (CPAM/DMSO %) at 10 μM. 112

I'd like to know its AD38 Viability Normalized Result (CPAM/DMSO %) at 10 μM. The molecule in question is COc1ccc(S(=O)(=O)N2CCN(c3nc(Nc4ccc(C)cc4)cc(N4CCCC4)n3)CC2)cc1 [Compound 1144] 100

What value of AD38 Viability Normalized Result (CPAM/DMSO %) at 10 μM has been reported for the following molecule? COc1ccc(S(=O)(=O)N2CCN(c3nc(C)cc(Nc4ccc(-c5ccccc5)cc4)n3)CC2)cc1 [Compound 1201] 101

###

System: AD38 cells
method: AD38 viability normalized to DMSO control
Type: cell-based
conditions used: 10 μM compound, vs DMSO control; Table 6
Listing: AD38 Viability Normalized Result (CPAM/DMSO %) at 10 μM of selected compounds
Form entry: value (%) — number only.

For orientation, consider the following solved cases.
| smiles representation | test system | numeric readout |
| --- | --- | --- |
| COc1ccc(S(=O)(=O)N2CCN(c3nc(Nc4ccc(C)cc4)cc(-n4cnnc4)n3)CC2)cc1 | AD38 cells | 99 |
| COc1ccc(S(=O)(=O)N2CCN(c3nc(NCCO)cc(Nc4ccc(C)cc4)n3)CC2)cc1 | AD38 cells | 96 |
| CN(C)c1cc(Oc2ccc(F)cc2)nc(N2CCN(S(=O)(=O)c3ccc(F)cc3)CC2)n1 | AD38 cells | 103 |

Suppose we examine the compound Cc1ccc(Nc2cc(C)nc(N3CCN(S(=O)(=O)c4ccc(N)nc4)CC3)n2)cc1 ; what AD38 Viability Normalized Result (CPAM/DMSO %) at 10 μM value has been reported? 99

Which value of AD38 Viability Normalized Result (CPAM/DMSO %) at 10 μM has been reported for COc1ccc(S(=O)(=O)N2CCN(c3nc(C)cc(Sc4ccc(C)cc4)n3)CC2)cc1 in the records? 95

Suppose we examine the compound O=S(=O)(c1cccc(C(F)(F)F)c1)N1CCN(c2nc(Oc3ccc(F)cc3)cc(-n3cnnc3)n2)CC1 ; what AD38 Viability Normalized Result (CPAM/DMSO %) at 10 μM value has been reported? 67

AD38 Viability Normalized Result (CPAM/DMSO %) at 10 μM for COc1ccc(S(=O)(=O)N2CCN(c3nc(C)cc(Nc4ccncc4)n3)CC2)cc1 ? 102

Look at this compound and give its reported AD38 Viability Normalized Result (CPAM/DMSO %) at 10 μM. Cc1ccc(Nc2cc(C)nc(N3CCN(S(=O)(=O)c4cc(C(=O)Nc5cc(F)c(F)c(F)c5)ccc4F)CC3)n2)cc1 86

Entry COc1ccc(S(=O)(=O)N2CCN(c3nc(Nc4ccc(C)cc4)cc(N4CCCCC4)n3)CC2)cc1 : reported AD38 Viability Normalized Result (CPAM/DMSO %) at 10 μM = ? 83
